- Measurement Target: SARS-CoV-2 spike receptor binding domain (RBD), Avi-tagged and biotinylated (SARS-CoV-2, UniProt P0DTC2 319-541, biotin (Avi tag, by BirA))
- Procedure Text: ELISA
Measurement Kind: pIC50
The meaning of pIC50 here: minus log10 of the concentration in molar units.

[ask] Given REGN10933 IgG1 (antibody, V domains shown) VH: QVQLVESGGGLVKPGGSLRLSCAASGFTFSDYYMSWIRQAPGKGLEWVSYITYSGSTIYYADSVKGRFTISRDNAKSSLYLQMNSLRAEDTAVYYCARDRGTTMVPFDYWGQGTLVTVSS VL: DIQMTQSPSSLSASVGDRVTITCQASQDITNYLNWYQQKPGKAPKLLIYAASNLETGVPSRFSGSGSGTDFTFTISGLQPEDIATYYCQQYDNLPLTFGGGTKVEIK , respond with its pIC50.
[reply] 8.84
